Molecular target: T1, cyno activated protein C (cyno (monkey))
T1 construct: also called cyno aPC; cyno APC
Assay: SPR (Biacore), 1:1 binding model
Parameter: Kd. Scope: all listed entries.
Output spec: scalar in nM, unitless text.

Some entries whose results are on file:
[[record]]
binder = "Hu1573-16 (antibody, V domains shown, Humanized IgG, human gamma 1 / kappa constant regions by vectors pCP-hCg1 and pCP-hck; also called H1573VH.1F + H1573Vk.2A) VH: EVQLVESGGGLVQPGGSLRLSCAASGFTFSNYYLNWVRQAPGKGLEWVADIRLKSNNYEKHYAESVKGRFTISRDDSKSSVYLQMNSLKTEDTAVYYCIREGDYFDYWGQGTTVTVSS VL: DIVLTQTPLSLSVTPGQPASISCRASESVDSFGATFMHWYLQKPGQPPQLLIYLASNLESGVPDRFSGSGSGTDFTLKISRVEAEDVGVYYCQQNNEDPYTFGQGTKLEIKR"
measurement_kind = "Kd"
measured_result = 15.8

[[record]]
binder = "Hu1573-17 (antibody, V domains shown, Humanized IgG, human gamma 1 / kappa constant regions by vectors pCP-hCg1 and pCP-hck; also called H1573VH.1F + H1573Vk.2B) VH: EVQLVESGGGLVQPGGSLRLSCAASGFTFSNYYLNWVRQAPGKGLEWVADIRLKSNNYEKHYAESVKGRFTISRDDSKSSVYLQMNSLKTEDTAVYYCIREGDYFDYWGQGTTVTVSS VL: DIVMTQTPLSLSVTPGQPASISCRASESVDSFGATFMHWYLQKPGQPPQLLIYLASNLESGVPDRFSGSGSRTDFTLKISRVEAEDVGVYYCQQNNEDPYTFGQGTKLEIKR"
measurement_kind = "Kd"
measured_result = 15.6

[[record]]
binder = "Hu1573-6 (antibody, V domains shown, Humanized IgG, human gamma 1 / kappa constant regions by vectors pCP-hCg1 and pCP-hck; also called H1573VH.1C + H1573Vk.2) VH: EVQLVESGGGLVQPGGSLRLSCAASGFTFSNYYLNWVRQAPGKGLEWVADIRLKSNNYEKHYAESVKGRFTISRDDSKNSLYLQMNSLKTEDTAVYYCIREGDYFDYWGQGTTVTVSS VL: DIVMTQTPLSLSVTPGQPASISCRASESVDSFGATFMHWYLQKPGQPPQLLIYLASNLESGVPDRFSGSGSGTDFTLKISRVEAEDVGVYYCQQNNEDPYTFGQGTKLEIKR"
measurement_kind = "Kd"
measured_result = 11.3

[[record]]
binder = "Hu1573-5 (antibody, V domains shown, Humanized IgG, human gamma 1 / kappa constant regions by vectors pCP-hCg1 and pCP-hck; also called H1573VH.1B + H1573Vk.2B) VH: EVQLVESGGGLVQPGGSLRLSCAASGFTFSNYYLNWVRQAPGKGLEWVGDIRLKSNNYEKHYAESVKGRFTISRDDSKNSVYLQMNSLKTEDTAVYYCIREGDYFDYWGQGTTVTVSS VL: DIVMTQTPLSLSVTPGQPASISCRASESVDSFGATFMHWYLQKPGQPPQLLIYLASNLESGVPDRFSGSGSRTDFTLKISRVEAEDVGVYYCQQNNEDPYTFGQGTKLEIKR"
measurement_kind = "Kd"
measured_result = 14.5

[[record]]
binder = "1573 mouse (antibody, V domains shown, Parental murine monoclonal antibody; also called mouse aPC monoclonal antibody 1573; HAPC1573) VH: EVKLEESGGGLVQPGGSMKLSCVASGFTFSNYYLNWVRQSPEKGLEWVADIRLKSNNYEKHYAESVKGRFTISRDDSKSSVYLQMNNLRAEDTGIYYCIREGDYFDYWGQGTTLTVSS VL: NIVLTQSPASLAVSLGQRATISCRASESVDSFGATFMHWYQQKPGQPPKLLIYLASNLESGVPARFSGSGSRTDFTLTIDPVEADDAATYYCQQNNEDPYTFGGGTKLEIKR"
measurement_kind = "Kd"
measured_result = 21.1


*Q* Value lookup for Kd; key = Hu1573-7 (antibody, V domains shown, Humanized IgG, human gamma 1 / kappa constant regions by vectors pCP-hCg1 and pCP-hck; also called H1573VH.1C + H1573Vk.2A) VH: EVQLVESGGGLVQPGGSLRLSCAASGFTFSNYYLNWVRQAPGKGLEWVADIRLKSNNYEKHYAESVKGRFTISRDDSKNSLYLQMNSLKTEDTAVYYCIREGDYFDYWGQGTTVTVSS VL: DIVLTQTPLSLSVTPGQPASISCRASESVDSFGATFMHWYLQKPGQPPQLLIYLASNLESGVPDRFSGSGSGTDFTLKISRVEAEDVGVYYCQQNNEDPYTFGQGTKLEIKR
*A* 18.5

*Q* # query: Kd of entry Hu1573-8 (antibody, V domains shown, Humanized IgG, human gamma 1 / kappa constant regions by vectors pCP-hCg1 and pCP-hck; also called H1573VH.1C + H1573Vk.2B) VH: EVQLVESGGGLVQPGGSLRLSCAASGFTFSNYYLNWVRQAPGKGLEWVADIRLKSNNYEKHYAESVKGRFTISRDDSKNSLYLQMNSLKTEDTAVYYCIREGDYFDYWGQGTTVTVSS VL: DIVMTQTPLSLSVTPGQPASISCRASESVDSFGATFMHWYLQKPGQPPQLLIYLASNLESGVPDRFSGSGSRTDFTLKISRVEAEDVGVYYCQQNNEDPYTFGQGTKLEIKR
*A* 12.3

*Q* State the recorded Kd for this entry: Hu1573-13 (antibody, V domains shown, Humanized IgG, human gamma 1 / kappa constant regions by vectors pCP-hCg1 and pCP-hck; also called H1573VH.1E + H1573Vk.2A) VH: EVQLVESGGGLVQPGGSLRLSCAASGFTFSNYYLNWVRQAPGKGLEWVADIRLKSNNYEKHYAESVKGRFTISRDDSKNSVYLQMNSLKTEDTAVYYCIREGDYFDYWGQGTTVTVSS VL: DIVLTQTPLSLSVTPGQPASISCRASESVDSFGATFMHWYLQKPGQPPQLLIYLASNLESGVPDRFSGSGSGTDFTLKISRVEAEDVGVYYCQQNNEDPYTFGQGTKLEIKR
*A* 15

Just for reference, patent USRE49099 is where these values come from.
